assayText: Cytotoxicity against human BJ cells after 72 hrs by MTT assay
Format: cell-based
propertyMeasured: CC50 at 72 h (µM)
Numeric only. Scale: µM

Enquiry: I am curious: what CC50 at 72 h value has been reported for OC[C@H]1O[C@@H](n2cc(Cl)c3c(-c4ccco4)ncnc32)[C@H](O)[C@@H]1O ?
Return: 37.2

Enquiry: I am curious: what CC50 at 72 h value has been reported for OC[C@H]1O[C@@H](n2ccc3c(-c4ccccc4)ncnc32)[C@H](O)[C@@H]1O ?
Return: 44.1

Enquiry: I am curious: what CC50 at 72 h value has been reported for OC[C@H]1O[C@@H](n2ccc3c(-c4cn[nH]c4)ncnc32)[C@H](O)[C@@H]1O ?
Return: 42.1

Enquiry: I am curious: what CC50 at 72 h value has been reported for OC[C@H]1O[C@@H](n2cc(F)c3c(-c4ccoc4)ncnc32)[C@H](O)[C@@H]1O ?
Return: 0.35

Enquiry: I am curious: what CC50 at 72 h value has been reported for OC[C@H]1O[C@@H](n2ccc3c(-c4cccnc4)ncnc32)[C@H](O)[C@@H]1O ?
Return: 50

----------
assayText: Cytotoxicity against human MRC5 cells after 72 hrs by MTT assay
Assay type: cell-based
Provide the recorded CC50 at 72 h for the entries that follow.

Enquiry: I am curious: what CC50 at 72 h value has been reported for OC[C@H]1O[C@@H](n2ccc3c(-c4cc5ccccc5s4)ncnc32)[C@H](O)[C@@H]1O ?
Return: > 50 µM

Enquiry: I am curious: what CC50 at 72 h value has been reported for OC[C@H]1O[C@@H](n2cc(F)c3c(-c4ccco4)ncnc32)[C@H](O)[C@@H]1O ?
Return: 29 µM

Enquiry: I am curious: what CC50 at 72 h value has been reported for OC[C@H]1O[C@@H](n2ccc3c(-c4ccccn4)ncnc32)[C@H](O)[C@@H]1O ?
Return: > 50 µM

Enquiry: I am curious: what CC50 at 72 h value has been reported for CCCCCCCCCCCCCCCCCCOP(=O)(O)OC[C@H]1O[C@@H](n2ccc3c(-c4ccccc4)ncnc32)[C@H](O)[C@@H]1O ?
Return: > 50 µM

Enquiry: I am curious: what CC50 at 72 h value has been reported for OC[C@H]1O[C@@H](n2cc(Cl)c3c(-c4ccco4)ncnc32)[C@H](O)[C@@H]1O ?
Return: > 50 µM

Enquiry: I am curious: what CC50 at 72 h value has been reported for OC[C@H]1O[C@@H](n2cc(Cl)c3c(-c4ccccc4)ncnc32)[C@H](O)[C@@H]1O ?
Return: > 50 µM

Enquiry: I am curious: what CC50 at 72 h value has been reported for OC[C@H]1O[C@@H](n2cc(F)c3c(-c4ccoc4)ncnc32)[C@H](O)[C@@H]1O ?
Return: 15.4 µM

Enquiry: I am curious: what CC50 at 72 h value has been reported for CCCCCCCCCCCCCCCCCCOP(=O)(O)OC[C@H]1O[C@@H](n2ccc3c(-c4cc5ccccc5o4)ncnc32)[C@H](O)[C@@H]1O ?
Return: > 50 µM

----------
assayText: Cytotoxicity against human MRC5 cells after 72 hrs by MTT assay
Format: cell-based
propertyMeasured: CC50 at 72 h

Enquiry: I am curious: what CC50 at 72 h value has been reported for CCCCCCCCCCCCCCCCCCOP(=O)(O)OC[C@H]1O[C@@H](n2ccc3c(-c4ccco4)ncnc32)[C@H](O)[C@@H]1O ?
Return: 45.3 µM

Enquiry: I am curious: what CC50 at 72 h value has been reported for Cc1ncnc2c1ccn2[C@@H]1O[C@H](CO)[C@@H](O)[C@H]1O ?
Return: 0.081 µM

Enquiry: I am curious: what CC50 at 72 h value has been reported for CCCCCCCCCCCCCCCCCCOP(=O)(O)OC[C@H]1O[C@@H](n2ccc3c(-c4ccsc4)ncnc32)[C@H](O)[C@@H]1O ?
Return: > 50 µM

Enquiry: I am curious: what CC50 at 72 h value has been reported for OC[C@H]1O[C@@H](n2ccc3c(-c4ccoc4)ncnc32)[C@H](O)[C@@H]1O ?
Return: 45.4 µM

Enquiry: I am curious: what CC50 at 72 h value has been reported for OC[C@H]1O[C@@H](n2cc(F)c3c(-c4nccs4)ncnc32)[C@H](O)[C@@H]1O ?
Return: > 50 µM

Enquiry: I am curious: what CC50 at 72 h value has been reported for CCCCCCCCCCCCCCCCCCOP(=O)(O)OC[C@H]1O[C@@H](n2ccc3c(-c4ccoc4)ncnc32)[C@H](O)[C@@H]1O ?
Return: > 50 µM

Enquiry: I am curious: what CC50 at 72 h value has been reported for OC[C@H]1O[C@@H](n2ccc3c(-c4ccsc4)ncnc32)[C@H](O)[C@@H]1O ?
Return: > 50 µM

Enquiry: I am curious: what CC50 at 72 h value has been reported for OC[C@H]1O[C@@H](n2cc(F)c3c(-c4cc[nH]c4)ncnc32)[C@H](O)[C@@H]1O ?
Return: 48.9 µM

Enquiry: I am curious: what CC50 at 72 h value has been reported for OC[C@H]1O[C@@H](n2cc(Cl)c3c(-c4ccsc4)ncnc32)[C@H](O)[C@@H]1O ?
Return: > 50 µM

Enquiry: I am curious: what CC50 at 72 h value has been reported for OC[C@H]1O[C@@H](n2ccc3c(-c4ccc[nH]4)ncnc32)[C@H](O)[C@@H]1O ?
Return: > 50 µM

Enquiry: I am curious: what CC50 at 72 h value has been reported for OC[C@H]1O[C@@H](n2ccc3c(-c4nccs4)ncnc32)[C@H](O)[C@@H]1O ?
Return: 37 µM

Enquiry: I am curious: what CC50 at 72 h value has been reported for OC[C@H]1O[C@@H](n2ccc3c(-c4cccc5c4oc4ccccc45)ncnc32)[C@H](O)[C@@H]1O ?
Return: > 50 µM

Enquiry: I am curious: what CC50 at 72 h value has been reported for OCc1ncnc2c1ccn2[C@@H]1O[C@H](CO)[C@@H](O)[C@H]1O ?
Return: 0.28 µM

Enquiry: I am curious: what CC50 at 72 h value has been reported for OC[C@H]1O[C@@H](n2ccc3c(-c4cc5ccccc5[nH]4)ncnc32)[C@H](O)[C@@H]1O ?
Return: > 50 µM

Enquiry: I am curious: what CC50 at 72 h value has been reported for OC[C@H]1O[C@@H](n2ccc3c(-c4cccnc4)ncnc32)[C@H](O)[C@@H]1O ?
Return: > 50 µM

Enquiry: I am curious: what CC50 at 72 h value has been reported for OC[C@H]1O[C@@H](n2ccc3c(-c4ccn[nH]4)ncnc32)[C@H](O)[C@@H]1O ?
Return: 1.16 µM

Enquiry: I am curious: what CC50 at 72 h value has been reported for OC[C@H]1O[C@@H](n2ccc3c(Cc4ccccc4)ncnc32)[C@H](O)[C@@H]1O ?
Return: > 50 µM

Enquiry: I am curious: what CC50 at 72 h value has been reported for OC[C@H]1O[C@@H](n2ccc3c(-c4cccs4)ncnc32)[C@H](O)[C@@H]1O ?
Return: > 50 µM
